# measurementTarget: PKM2 (Homo sapiens (Human), UniProt P14618)
# Sequence (P14618 whole entry, species assumed): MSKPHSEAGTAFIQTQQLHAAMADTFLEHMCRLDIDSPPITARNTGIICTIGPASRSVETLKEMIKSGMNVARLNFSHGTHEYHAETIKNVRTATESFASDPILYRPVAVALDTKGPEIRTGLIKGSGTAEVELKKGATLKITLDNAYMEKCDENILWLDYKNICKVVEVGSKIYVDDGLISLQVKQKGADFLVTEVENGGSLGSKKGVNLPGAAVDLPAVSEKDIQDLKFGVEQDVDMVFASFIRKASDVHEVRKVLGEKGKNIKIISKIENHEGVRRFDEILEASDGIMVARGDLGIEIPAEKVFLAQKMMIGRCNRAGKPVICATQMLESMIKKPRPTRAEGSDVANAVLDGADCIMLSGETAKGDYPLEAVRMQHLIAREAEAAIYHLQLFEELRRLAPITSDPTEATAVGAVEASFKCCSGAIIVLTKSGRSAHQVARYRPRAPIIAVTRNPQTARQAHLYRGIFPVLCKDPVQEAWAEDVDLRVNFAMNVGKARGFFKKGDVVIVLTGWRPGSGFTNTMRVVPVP
# testDetails: Recombinant PKM2 enzyme activity in the presence of FBP (LDH-coupled NADH consumption)
# experimentalSetup: recombinant pyruvate kinase, enzyme activity at various concentrations of inhibitor; read-out: IC50 in vitro (PKM2)
experimentalReadout: pIC50
Formally, pIC50 is defined as -log10 of the concentration c, with c in mol/L.

Query: Reported pIC50, compound O=C(O)CN1C(=O)/C(=C/c2ccc(OC(=O)c3ccccc3I)cc2)SC1=S [Compound D1] : ____
Result: 4.70

Query: Which value of pIC50 has been reported for O=C1C2C3C=CC(C3)C2C(=O)N1c1nc[nH]n1 (centres unmarked) [Compound H1] in the records?
Result: 4.05
